meta.source: patent US8168651B2

- system_tested: recombinant human CK2 (Homo sapiens (Human))
- Sequence (P68400 whole entry): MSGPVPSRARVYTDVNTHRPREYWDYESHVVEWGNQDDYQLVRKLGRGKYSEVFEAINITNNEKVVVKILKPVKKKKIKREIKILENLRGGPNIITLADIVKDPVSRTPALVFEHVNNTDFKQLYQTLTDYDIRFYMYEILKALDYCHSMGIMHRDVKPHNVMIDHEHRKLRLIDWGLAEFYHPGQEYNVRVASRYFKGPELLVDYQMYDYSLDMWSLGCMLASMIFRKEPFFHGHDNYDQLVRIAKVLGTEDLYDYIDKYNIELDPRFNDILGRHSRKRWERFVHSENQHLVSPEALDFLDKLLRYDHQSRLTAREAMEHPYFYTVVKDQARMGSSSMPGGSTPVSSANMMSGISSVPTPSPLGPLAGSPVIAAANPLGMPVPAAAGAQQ
- Sequence (P67870 whole entry partner): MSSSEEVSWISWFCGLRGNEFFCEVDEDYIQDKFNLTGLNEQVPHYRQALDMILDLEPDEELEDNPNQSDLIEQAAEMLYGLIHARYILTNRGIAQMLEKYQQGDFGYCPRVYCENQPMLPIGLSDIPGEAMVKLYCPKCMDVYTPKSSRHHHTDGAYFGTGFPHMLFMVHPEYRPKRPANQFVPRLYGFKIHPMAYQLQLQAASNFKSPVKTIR
- assay_procedure: CK2 assay (cell-free, 33P-ATP filter plate)
- Format: biochemical
- test_settings: 500 nM compound, cell-free assay; read-out: CK2: % inh 500 nM
# inhibition at 0.5 µM annotations
Your answer is read as %, so omit the unit and give the number.

Here are 3 compounds together with their reported answers.
>>> observed("CC(C)(C)OC(=O)N1CCCC1CNc1nc2cc(C#N)ccc2c2sccc12 (stereo not drawn)")
-35.2
>>> observed("N#Cc1ccc2c(c1)nc(OCC(F)(F)F)c1ccsc12")
-9.05
>>> observed("N#Cc1ccc2c(c1)nc(Nc1cccc(F)c1)c1cscc12")
-20.1

Give inhibition at 0.5 µM (recombinant human CK2 (Homo sapiens (Human))) of the following compound: O=C(O)c1ccc2c(c1)nc(Nc1cccc(Cl)c1)c1nccnc12
69.3

Give inhibition at 0.5 µM (recombinant human CK2 (Homo sapiens (Human))) of the following compound: CCN(c1ccccc1)c1nc2cc(C(=O)O)ccc2c2cnccc12
91.8
